# assayText: Microsomal stability (liver microsomal assay, mixed cofactors); predicted hepatic clearance
# Assay type: in vitro ADME
# details: liver microsomes 1.0 mg protein/mL (+UDPGA +NADPH), 1 μM analyte, 37° C.; scaled with human liver weight and hepatic blood flow 1.3 L/hr/kg
quantityMeasured: Predicted Hepatic Clearance (Pred. Cl.)

**Query** Which measured Predicted Hepatic Clearance (Pred. Cl.) value corresponds to COCCn1c(Cc2ccc(-c3cccc4c3OC(c3ccc(Cl)cn3)C4)cc2F)nc2ccc(C(=O)O)cc21 (stereo not shown) ?
**Result** 7.17 mL/min/kg

**Query** Do the same for COCCn1c(Cc2c(F)cc(-c3cccc4c3OC(c3ccc(C#N)cc3F)O4)cc2F)nc2ccc(C(=O)O)cc21 (single isomer, unassigned) [Example 37] please
**Result** 3.83 mL/min/kg

**Query** Ok, now CC1(c2ccc(Cl)cc2F)Oc2cccc(-c3cc(F)c(Cc4nc5ccc(C(=O)O)cc5n4CC4(CC#N)CC4)c(F)c3)c2O1 (stereo not shown)
**Result** <1.83 mL/min/kg

**Query** Please do the same for CC1(c2ccc(Cl)cc2F)Oc2cccc(-c3cc(F)c(Cc4nc5ccc(C(=O)O)cc5n4C[C@@H]4CCO4)c(F)c3)c2O1 (single isomer, unassigned) [Example 48] as well.
**Result** 2 mL/min/kg

**Query** Same for COCCn1c(Cc2c(F)cc(-c3cccc4c3OC(C)(c3ccc(C#N)cc3F)O4)c(F)c2F)nc2ccc(C(=O)O)cc21 (single isomer, unassigned) [Example 96]
**Result** 3.5 mL/min/kg

**Query** Note, next up: COCCn1c(Cc2c(F)cc(-c3cccc4c3OC(C)(c3ccc(C#N)cn3)O4)cc2F)nc2ccc(C(=O)O)cc21 (stereo not shown)
**Result** 7.17 mL/min/kg

**Query** How about this compound: COCCn1c(Cc2ccc(-c3cccc4c3OC(c3ccccc3)C4)cc2F)nc2ccc(C(=O)O)cc21 (stereo not shown)
**Result** 7.5 mL/min/kg

**Query** Likewise for COCCn1c(Cc2ccc(-c3cccc4c3OC(C)(c3nc5ccccc5n3C)O4)cc2F)nc2ccc(C(=O)O)cc21 (stereo not shown) ?
**Result** 17.8 mL/min/kg

**Query** Try this compound next: COCCn1c(Cc2c(F)cc(-c3cccc4c3OC(C)(c3ccc(C(N)=O)cn3)O4)cc2F)nc2ccc(C(=O)O)cc21 (stereo not shown)
**Result** 7.17 mL/min/kg

**Query** Same question, COCCn1c(Cc2c(F)cc(-c3cccc4c3OC3(CCCOc5cc(Cl)ccc53)O4)cc2F)nc2ccc(C(=O)O)cc21 (stereo not shown) this time
**Result** 8.3 mL/min/kg

**Query** Repeat for the following compound: CC1(c2ccc(Cl)cn2)Oc2cccc(-c3cnc(Cc4nc5ccc(C(=O)O)cc5n4C[C@@H]4CCO4)c(F)c3)c2O1 (stereo partly shown)
**Result** 2.5 mL/min/kg

**Query** Same lookup for COCCn1c(Cc2c(F)cc(-c3cccc4c3OC3(CCCc5cc(Cl)ccc53)O4)cc2F)nc2ccc(C(=O)O)cc21 (stereo not shown) , please.
**Result** 5.83 mL/min/kg

**Query** Consider next the compound CC1(c2ccc(C#N)cc2F)Oc2cccc(-c3cc(F)c(Cc4nc5ccc(C(=O)O)cc5n4C[C@@H]4CCO4)c(F)c3)c2O1 (stereo partly shown) [Example 91] in the same way.
**Result** 3.83 mL/min/kg

----------
Answer each item with its documented EC50.
# target: GLP-1R (Homo sapiens (Human))
# assayText: GLP-1R activation: cAMP increase in CHO cells stably expressing GLP-1R
# Format: cell-based
# details: cAMP increase, 10 point dose response, 30 minutes incubation at 37° C., read-out: EC50
Quick reminder: number only, in nM, skip the unit.

**Query** Recorded EC50 of COCCn1c(Cc2c(F)cc(-c3cccc4c3OC3(CCCc5cc(Cl)ccc53)O4)cc2F)nc2ccc(C(=O)O)cc21 (stereo not shown) , please.
**Result** 3750

**Query** How about COCCn1c(Cc2c(F)cc(-c3cccc4c3O[C@](C)(c3ccc(Cl)cc3F)O4)cc2F)nc2ccc(C(=O)O)cc21 ?
**Result** 8.2

**Query** What about this compound? COCCn1c(Cc2ccc(-c3cccc4c3OC(C)(c3ccc(Cl)cc3F)O4)nc2OC)nc2ccc(C(=O)O)cc21 (stereo not shown)
**Result** 168

**Query** Let us now turn to CC1(c2ccc(Cl)cc2F)Oc2cccc(-c3cc(F)c(Cc4nc5ccc(C(=O)O)cc5n4C[C@@H]4CCO4)c(F)c3)c2O1 (stereo partly shown)
**Result** 0.024

----------
# target: GLP-1R (Homo sapiens (Human), UniProt P43220)
# Sequence (P43220 24-463): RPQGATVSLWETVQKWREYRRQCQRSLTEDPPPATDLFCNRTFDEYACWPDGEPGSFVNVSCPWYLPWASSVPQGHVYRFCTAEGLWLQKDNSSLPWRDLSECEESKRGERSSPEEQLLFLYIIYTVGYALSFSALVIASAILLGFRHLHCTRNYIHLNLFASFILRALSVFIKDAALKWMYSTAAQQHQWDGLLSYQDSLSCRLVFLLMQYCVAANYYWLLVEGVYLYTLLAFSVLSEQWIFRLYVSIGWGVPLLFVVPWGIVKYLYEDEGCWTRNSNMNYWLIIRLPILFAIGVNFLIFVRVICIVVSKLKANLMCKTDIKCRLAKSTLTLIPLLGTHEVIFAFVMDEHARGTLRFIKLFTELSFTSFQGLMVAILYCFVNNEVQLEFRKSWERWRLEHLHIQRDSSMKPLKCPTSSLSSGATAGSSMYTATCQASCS
# assayText: GLP-1R activation: cAMP increase in CHO cells stably expressing GLP-1R
# Type: cell-based
# details: cAMP increase, 10 point dose response, 30 minutes incubation at 37° C., read-out: EC50
quantityMeasured: pEC50
Remember the convention: pEC50 equals -log10 of concentration in molar.

**Query** What value of pEC50 has been reported for the following compound? COCCn1c(Cc2c(F)cc(-c3cccc4c3OC(c3ccc(C#N)cc3F)O4)cc2F)nc2ccc(C(=O)O)cc21 (single isomer, unassigned) [Example 37]
**Result** 6.00

**Query** N#Cc1ccc(C2Oc3cccc(-c4cc(F)c(Cc5nc6ccc(C(=O)O)cc6n5C[C@@H]5CCO5)c(F)c4)c3O2)c(F)c1 (stereo partly drawn) [Example 30] ?
**Result** 8.72

**Query** # repeat for COCCn1c(Cc2ccc(-c3cccc4c3OC(c3ccc(Cl)cn3)C4)cc2F)nc2ccc(C(=O)O)cc21 (stereo not drawn)
**Result** 5.75

**Query** And what about the compound CC1(c2ccc(Cl)cn2)Oc2cccc(-c3cc(F)c(Cc4nc5ccc(C(=O)O)cc5n4CC4(CF)CC4)c(F)c3)c2O1 (stereo not drawn) ?
**Result** 8.62

**Query** Same again, this time with CC1(c2ccc(C#N)cc2F)Oc2cccc(-c3cc(F)c(Cc4nc5ccc(C(=O)O)cc5n4C[C@@H]4CCO4)c(F)c3)c2O1 (single isomer, unassigned) [Example 92]
**Result** 8.48

**Query** Now consider CC1(c2ccc(Cl)cc2F)Oc2cccc(-c3cc(F)c(Cc4nc5ccc(C(=O)O)cc5n4C[C@@H]4CCO4)cc3F)c2O1 (single isomer, unassigned) [Example 43] .
**Result** 8.13

----------
# assayText: Microsomal stability (liver microsomal assay, mixed cofactors); predicted hepatic clearance
# Assay type: in vitro ADME
# details: liver microsomes 1.0 mg protein/mL (+UDPGA +NADPH), 1 μM analyte, 37° C.; scaled with human liver weight and hepatic blood flow 1.3 L/hr/kg
quantityMeasured: Predicted Hepatic Clearance (Pred. Cl.)
Give the number first and the unit second.

**Query** Given the compound COCCn1c(Cc2ccc(-c3cccc4c3OC(C)(c3ccc(Cl)cc3F)O4)nc2OC)nc2ccc(C(=O)O)cc21 (stereo not drawn) [Example 85] , what is its reported Predicted Hepatic Clearance (Pred. Cl.)?
**Result** 3 mL/min/kg

**Query** What would you report for CC1(c2ccc(Cl)cc2F)Oc2cccc(-c3cc(F)c(Cc4nc5ccc(C(=O)O)cc5n4C[C@@H]4CCO4)cc3F)c2O1 (stereo partly drawn) [Example 28] ?
**Result** 3.83 mL/min/kg

**Query** What about COCCn1c(Cc2ccc(-c3cccc4c3OC(c3ccc(C#N)cc3)O4)cc2F)nc2ccc(C(=O)O)cc21 (stereo not drawn) [Example 6] ?
**Result** 4.83 mL/min/kg

**Query** // repeat for CC1(c2ccc(Cl)cc2F)Oc2cccc(-c3ccc(Cc4nc5ccc(C(=O)O)cc5n4C[C@@H]4CCO4)c(F)c3)c2O1 (stereo partly drawn) [Example 23] and report
**Result** 2.33 mL/min/kg

**Query** Next: CC1(c2ccc(C#N)cc2F)Oc2cccc(-c3cc(F)c(Cc4nc5ccc(C(=O)O)cc5n4C[C@@H]4CCO4)c(F)c3F)c2O1 (single isomer, unassigned) [Example 94]
**Result** 7 mL/min/kg

**Query** Please give the result for CC1(c2ccc(C#N)cc2F)Oc2cccc(-c3cc(F)c(Cc4nc5ccc(C(=O)O)cc5n4C[C@@H]4CCO4)c(F)c3F)c2O1 (single isomer, unassigned) [Example 95] too.
**Result** 2.83 mL/min/kg

----------
# target: GLP-1R (Homo sapiens (Human))
# assayText: GLP-1R activation: cAMP increase in CHO cells stably expressing GLP-1R
# Type: cell-based
# details: EC50, cAMP increase, 10 point dose response, 30 minutes incubation at 37° C.
quantityMeasured: EC50
Quick note: unit goes after the number.

**Query** Any idea what EC50 came out for CC1(c2ccc(Cl)cc2F)Oc2cccc(-c3cc(F)c(Cc4nc5ccc(C(=O)O)cc5n4C[C@@H]4CCO4)c(F)c3)c2O1 (single isomer, unassigned) [Example 48] on GLP-1R (Homo sapiens (Human))?
**Result** 1.2 nM

**Query** Similarly, CC1(c2ccc(Cl)cc2F)Oc2cccc(-c3cc(F)c(Cc4nc5ccc(C(=O)O)cc5n4C[C@@H]4CCO4)c(F)c3)c2O1 (single isomer, unassigned) [Example 47] ?
**Result** 0.07 nM
